target: Jak2 (UniProt O60674); assay: phosphorylation enrichment, bacterial display (enrichment ratio); higher = better substrate or ligand; peptides without Tyr show the background
Sequence (O60674 whole entry, looked up): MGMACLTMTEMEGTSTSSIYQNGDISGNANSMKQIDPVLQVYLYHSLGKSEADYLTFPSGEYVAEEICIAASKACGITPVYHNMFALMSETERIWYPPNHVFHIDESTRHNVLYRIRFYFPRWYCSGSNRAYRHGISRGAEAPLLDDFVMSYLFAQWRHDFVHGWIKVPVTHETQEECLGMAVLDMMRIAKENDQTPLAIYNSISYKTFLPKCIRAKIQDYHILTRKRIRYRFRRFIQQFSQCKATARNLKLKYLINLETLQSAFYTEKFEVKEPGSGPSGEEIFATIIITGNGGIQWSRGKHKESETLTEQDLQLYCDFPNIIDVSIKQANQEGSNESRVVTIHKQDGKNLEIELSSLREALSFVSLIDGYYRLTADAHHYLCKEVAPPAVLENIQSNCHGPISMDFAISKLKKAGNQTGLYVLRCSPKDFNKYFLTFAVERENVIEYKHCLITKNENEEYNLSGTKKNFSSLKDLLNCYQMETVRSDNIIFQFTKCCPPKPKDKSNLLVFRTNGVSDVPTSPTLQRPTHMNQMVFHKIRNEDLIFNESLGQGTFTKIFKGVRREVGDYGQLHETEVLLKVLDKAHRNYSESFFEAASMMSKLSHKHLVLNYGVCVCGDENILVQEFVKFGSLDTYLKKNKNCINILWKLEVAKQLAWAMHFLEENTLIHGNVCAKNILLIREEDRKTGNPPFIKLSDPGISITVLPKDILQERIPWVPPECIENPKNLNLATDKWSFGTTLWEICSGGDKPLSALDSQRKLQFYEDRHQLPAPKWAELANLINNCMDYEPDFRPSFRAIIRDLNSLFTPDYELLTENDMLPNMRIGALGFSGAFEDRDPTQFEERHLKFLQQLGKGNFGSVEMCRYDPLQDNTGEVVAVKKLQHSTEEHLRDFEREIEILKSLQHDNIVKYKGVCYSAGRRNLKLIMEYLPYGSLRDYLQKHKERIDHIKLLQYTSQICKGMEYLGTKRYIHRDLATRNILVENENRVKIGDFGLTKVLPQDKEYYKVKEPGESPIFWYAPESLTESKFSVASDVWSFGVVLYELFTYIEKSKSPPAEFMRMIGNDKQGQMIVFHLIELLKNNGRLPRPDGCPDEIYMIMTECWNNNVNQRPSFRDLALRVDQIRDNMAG
Would you mind labelling by phosphorylation enrichment? At or over 0.9 is yes (1), under is no (0).

Hi team, for YEREQYADRTR [RBM4_Y355_A359T] , is the recorded phosphorylation enrichment at or above 0.9?
no (0)

State whether the measured phosphorylation enrichment reaches 0.9, counting equality as reaching it, for LVRPPYSYLAL [FOXI1_Y126_S129L]
yes (1)

Item GNLLIYTDFGK [HGD_Y166_E168D] with phosphorylation enrichment of 0.9 or above?
yes (1)

Given NGRTGYVLQPE [PLCG2_Y1036] , state whether its phosphorylation enrichment is at least 0.9.
no (0)

Does ILTLKYLIEHG [ACTG1_Y69_P70L] have a reported phosphorylation enrichment of at least 0.9?
yes (1)

Is reported phosphorylation enrichment greater than or equal to 0.9 here: RYVTRYIYNRE [HLA-DQB1_Y62]
yes (1)

Dear colleague, could you confirm whether TGEKLYQHKEF [ZNF283_Y627_R629H] has phosphorylation enrichment at or above 0.9?
no (0)

# check: phosphorylation enrichment of IFKAAYFGVFD [SLC25A4_Y191_R188K_YF] is greater than or equal to 0.9
yes (1)

Check this sequence for phosphorylation enrichment at or above 0.9: EITSHYRHLLR [ZBTB46_Y14]
no (0)

// inclusive: phosphorylation enrichment at least 0.9? input: SFDLDYDSVQP [MYC_Y16_N11S_YF]
yes (1)

Answer whether phosphorylation enrichment of LINLKYSVEEE [PCDH19_Y27] is greater than or equal to 0.9.
yes (1)

Is the recorded value of phosphorylation enrichment equal to or greater than 0.9 for this sequence? SVTCTYSPALK [TP53_Y126_N131K]
no (0)

Form field: phosphorylation enrichment at least 0.9? Entry: SDVSSYLEGQA [GCG_Y110]
no (0)

// inclusive: phosphorylation enrichment at least 0.9? input: YKGKKYKPLDL [RPL35_Y78]
no (0)

Assess whether reported phosphorylation enrichment for SQPASYQRRFL [PPIG_Y320_L324F] sits at 0.9 or higher.
no (0)

Check if phosphorylation enrichment >= 0.9 (inclusive). Item: GDYYRSLAEVA [YWHAG_Y133_Y133S]
yes (1)

Does phosphorylation enrichment meet or surpass 0.9 for REVPVYISEDS [SYNM_Y460_G462S] ?
yes (1)

Is phosphorylation enrichment at least 0.9? Consider ENRLDYGSAWA [AR_Y395_P392R]
no (0)

Threshold query (phosphorylation enrichment >= 0.9) on LDAFIYDAALL [GRIN2A_Y730_V734L]
yes (1)

Is it the case that WQQQSYLDSGS [CTNNB1_Y30_I35S] has phosphorylation enrichment reaching or exceeding 0.9?
no (0)

====

molecular target: EPHB1 (UniProt P54762); assay: phosphorylation enrichment, bacterial display (enrichment ratio); higher = better substrate or ligand; peptides without Tyr show the background
Sequence (P54762 whole entry, looked up): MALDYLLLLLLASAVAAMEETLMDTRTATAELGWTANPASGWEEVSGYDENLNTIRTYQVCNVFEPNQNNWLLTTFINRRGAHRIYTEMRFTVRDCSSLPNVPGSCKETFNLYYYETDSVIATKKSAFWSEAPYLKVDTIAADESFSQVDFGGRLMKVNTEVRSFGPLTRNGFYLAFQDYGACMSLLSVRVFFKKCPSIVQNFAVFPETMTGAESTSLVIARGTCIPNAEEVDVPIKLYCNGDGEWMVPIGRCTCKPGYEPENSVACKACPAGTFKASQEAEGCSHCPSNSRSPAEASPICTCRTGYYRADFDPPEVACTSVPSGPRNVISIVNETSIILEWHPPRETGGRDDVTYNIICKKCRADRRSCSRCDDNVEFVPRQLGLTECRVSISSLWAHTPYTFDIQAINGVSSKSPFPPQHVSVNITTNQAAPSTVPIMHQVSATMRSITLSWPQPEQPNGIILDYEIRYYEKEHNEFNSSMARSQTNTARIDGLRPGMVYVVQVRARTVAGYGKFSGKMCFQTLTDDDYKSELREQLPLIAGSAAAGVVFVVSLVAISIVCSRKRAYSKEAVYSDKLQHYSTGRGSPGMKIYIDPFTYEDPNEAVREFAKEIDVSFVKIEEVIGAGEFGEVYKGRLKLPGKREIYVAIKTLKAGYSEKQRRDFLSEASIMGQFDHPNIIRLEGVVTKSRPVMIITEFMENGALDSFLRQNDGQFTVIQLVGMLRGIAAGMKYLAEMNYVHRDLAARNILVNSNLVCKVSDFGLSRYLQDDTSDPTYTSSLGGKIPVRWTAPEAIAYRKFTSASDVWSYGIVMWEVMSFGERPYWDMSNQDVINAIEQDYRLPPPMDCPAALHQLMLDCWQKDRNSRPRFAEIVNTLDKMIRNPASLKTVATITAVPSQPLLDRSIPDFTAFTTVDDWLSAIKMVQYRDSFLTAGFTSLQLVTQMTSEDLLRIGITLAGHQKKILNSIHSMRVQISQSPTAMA
Everything with phosphorylation enrichment lower than 0.7 is criterion not met; everything else, including exactly 0.7, is criterion met.

Worked examples, 5 sequences total:
EHFSYYGMKAV [SLC15A2_Y61_R57H]
criterion met
ASTDYYKRGDF [PDHA1_Y243]
criterion not met
AVRVFYRKCPH [EPHB2_Y194_R199H]
criterion not met
GTVRDYPDFNP [ANXA3_Y15_S19N]
criterion not met
NVTGHYIPPFH [PPA2_Y59_S61P]
criterion not met

State whether the measured phosphorylation enrichment reaches 0.7, counting equality as reaching it, for DGQVNYEEFVQ [CALM1_Y139]
criterion met

Is it the case that HQNGTYGLHQD [SGSH_Y89_M88T] has phosphorylation enrichment reaching or exceeding 0.7?
criterion not met

====

# phosphorylation enrichment annotations
molecular target: Fyn (UniProt P06241); assay: phosphorylation enrichment, bacterial display (enrichment ratio); higher = better substrate or ligand; peptides without Tyr show the background
Sequence (P06241 whole entry, looked up): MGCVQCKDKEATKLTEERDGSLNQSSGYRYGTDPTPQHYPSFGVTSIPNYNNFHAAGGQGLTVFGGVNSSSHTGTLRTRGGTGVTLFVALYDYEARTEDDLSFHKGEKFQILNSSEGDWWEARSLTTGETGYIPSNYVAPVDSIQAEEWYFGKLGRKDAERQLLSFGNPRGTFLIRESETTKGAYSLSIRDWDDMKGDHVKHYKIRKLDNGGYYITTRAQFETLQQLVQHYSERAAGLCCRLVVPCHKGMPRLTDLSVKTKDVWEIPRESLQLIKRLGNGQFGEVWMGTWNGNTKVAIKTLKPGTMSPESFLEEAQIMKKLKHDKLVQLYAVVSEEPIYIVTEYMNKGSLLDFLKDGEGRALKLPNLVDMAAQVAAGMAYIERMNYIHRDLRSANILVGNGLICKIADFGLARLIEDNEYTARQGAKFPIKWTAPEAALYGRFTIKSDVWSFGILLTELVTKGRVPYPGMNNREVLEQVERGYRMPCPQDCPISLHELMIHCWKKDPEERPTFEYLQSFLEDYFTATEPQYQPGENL
Form field (numeric): enter value without unit.

Reference set (4 entries):
GADAIYDHINE [UQCR10_Y44]
5.57
AKKVFYMIETR [SHH_Y253_V254M]
0.439
WNGDKYAATTT [TRIM39_Y439]
0.48
HSVVQYVGGVM [FGGY_Y136_L134V]
0.465

Give phosphorylation enrichment (Fyn (UniProt P06241)) of the following sequence: ESMLRYDVFGG [STOX1_Y607_E608D_YF]
0.636

Fill in the recorded phosphorylation enrichment for this sequence, with Fyn (UniProt P06241) as test system: TYEYKYPEGSS [TGM4_Y440]
0.394

Item: DYLEKYYKFGC [NNMT_Y24_S29C] Test system: Fyn (UniProt P06241) Read-out: phosphorylation enrichment Value: ?
0.588

====

target: Grb2 SH2 (UniProt P62993); test: SH2 binding enrichment of the phosphorylated peptide, bacterial display (enrichment ratio); higher = better substrate or ligand; peptides without Tyr show the background
Sequence (P62993 whole entry, looked up): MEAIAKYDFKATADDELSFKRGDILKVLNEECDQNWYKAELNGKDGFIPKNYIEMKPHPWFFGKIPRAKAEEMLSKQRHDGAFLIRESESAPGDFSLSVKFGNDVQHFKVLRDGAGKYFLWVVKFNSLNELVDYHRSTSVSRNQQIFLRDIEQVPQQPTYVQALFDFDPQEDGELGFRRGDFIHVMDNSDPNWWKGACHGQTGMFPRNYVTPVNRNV
Class assignment keyed on SH2 binding enrichment, ranges low: < 0.8; medium: ≥ 0.8 and < 1; high: ≥ 1

APSGNYVACGG [GNB1_Y111]
medium
RRNTYYASIAK [ACADM_Y353]
medium
CTIIHYNFMCN [TP53_Y234_T231I_YF]
high
METKGYQSLPE [NR3C2_Y6_H7Q]
low
FSPGSYERETF [NF1_Y2192]
low

// return the class label for RGSQQYRALPV [TUBB8_Y281_T285P]
medium

Could you tell me which band ARKCKYFKKHE [NFIX_Y40_R38C] belongs to?
high

For this sequence, which bin applies? HNELYYEAAEH [VANGL1_Y345_E347A]
medium

====

molecular target: Hck (UniProt P08631); assay: phosphorylation enrichment, bacterial display (enrichment ratio); higher = better substrate or ligand; peptides without Tyr show the background
Sequence (P08631 whole entry, looked up): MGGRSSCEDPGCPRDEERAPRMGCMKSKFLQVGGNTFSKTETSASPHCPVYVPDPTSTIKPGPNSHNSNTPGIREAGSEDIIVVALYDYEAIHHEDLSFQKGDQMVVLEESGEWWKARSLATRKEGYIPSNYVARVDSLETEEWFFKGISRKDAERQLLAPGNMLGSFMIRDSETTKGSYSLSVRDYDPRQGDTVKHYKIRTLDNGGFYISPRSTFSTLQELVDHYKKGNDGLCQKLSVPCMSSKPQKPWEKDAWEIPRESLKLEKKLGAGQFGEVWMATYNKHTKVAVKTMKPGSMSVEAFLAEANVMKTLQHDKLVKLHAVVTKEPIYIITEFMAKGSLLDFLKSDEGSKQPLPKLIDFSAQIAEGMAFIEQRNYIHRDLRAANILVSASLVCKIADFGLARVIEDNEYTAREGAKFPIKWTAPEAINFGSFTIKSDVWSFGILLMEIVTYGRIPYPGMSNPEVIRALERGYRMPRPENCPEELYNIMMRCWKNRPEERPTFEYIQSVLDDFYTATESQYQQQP
# label = condition met if phosphorylation enrichment >= 0.7 else condition not met

The following sequences have reported results that may help.
KVALLYKPFFF [POLE_Y100_P99L_YF]
condition met
WCSNDYLGMSQ [ALAS2_Y199_R204Q]
condition met
FLTQHYDAIPQ [ANG_Y38_K41I]
condition met
YRIGPYQPNVP [MATR3_Y784]
condition not met
FHKALYTVRTY [PDE6C_Y266_S270T]
condition met
FTNRSYDLDYD [MYC_Y12_N11S]
condition not met

Check this sequence for phosphorylation enrichment at or above 0.7: KIIATYRLCSE [DNAH3_Y1586_V1583I]
condition not met

In plain terms: is recorded phosphorylation enrichment at least 0.7 for TNIKRYHIAKG [HARS1_Y150_V155G] ?
condition not met

====

tested on: AncSZ; assay: phosphorylation enrichment, bacterial display (enrichment ratio); higher = better substrate or ligand; peptides without Tyr show the background
Value Type: phosphorylation enrichment
Give a plain numeric answer without units written out.

QELRRYLESGV [MICA_Y194_K196E]
0.597
HQNGTYGLHQD [SGSH_Y89_M88T]
0.615
SGPRRYTVAAL [TTR_Y125_I127V]
0.51
KHGGNYVPAPK [OSCP1_Y237]
0.7
SDVCMYRKNTF [SYNE2_Y570_I574T_YF]
0.711
LGQRIYQYIQS [DYRK1B_Y271]
1.54
PTTKTYFPHFH [HBA1_Y43_D48H]
0.721
HIILLYIFLKN [STXBP1_Y411_R406H]
1.27
RGYRVCYTPDS [PTPRF_Y450_Y450C]
1.32
DTKAFYPEEIS [HSPA1A_Y115_E110D]
1.05

State the recorded phosphorylation enrichment for this entry: VEDPEYAVTQL [STOML2_Y124]
1.24

Fill in: phosphorylation enrichment of QSLEPYTKQQL [STAT3_Y640_V637L] is ___
0.537

Given the entry DSGKLYALDGL [INO80_Y1104_V1108G] , report its measured phosphorylation enrichment.
0.829

Sample DDKQPYEKKAE [HMGB1_Y144_A149E] — what was its phosphorylation enrichment?
1.12

====

biological target: FGFR1 (UniProt P11362); assay: phosphorylation enrichment, bacterial display (enrichment ratio); higher = better substrate or ligand; peptides without Tyr show the background
Sequence (P11362 whole entry, looked up): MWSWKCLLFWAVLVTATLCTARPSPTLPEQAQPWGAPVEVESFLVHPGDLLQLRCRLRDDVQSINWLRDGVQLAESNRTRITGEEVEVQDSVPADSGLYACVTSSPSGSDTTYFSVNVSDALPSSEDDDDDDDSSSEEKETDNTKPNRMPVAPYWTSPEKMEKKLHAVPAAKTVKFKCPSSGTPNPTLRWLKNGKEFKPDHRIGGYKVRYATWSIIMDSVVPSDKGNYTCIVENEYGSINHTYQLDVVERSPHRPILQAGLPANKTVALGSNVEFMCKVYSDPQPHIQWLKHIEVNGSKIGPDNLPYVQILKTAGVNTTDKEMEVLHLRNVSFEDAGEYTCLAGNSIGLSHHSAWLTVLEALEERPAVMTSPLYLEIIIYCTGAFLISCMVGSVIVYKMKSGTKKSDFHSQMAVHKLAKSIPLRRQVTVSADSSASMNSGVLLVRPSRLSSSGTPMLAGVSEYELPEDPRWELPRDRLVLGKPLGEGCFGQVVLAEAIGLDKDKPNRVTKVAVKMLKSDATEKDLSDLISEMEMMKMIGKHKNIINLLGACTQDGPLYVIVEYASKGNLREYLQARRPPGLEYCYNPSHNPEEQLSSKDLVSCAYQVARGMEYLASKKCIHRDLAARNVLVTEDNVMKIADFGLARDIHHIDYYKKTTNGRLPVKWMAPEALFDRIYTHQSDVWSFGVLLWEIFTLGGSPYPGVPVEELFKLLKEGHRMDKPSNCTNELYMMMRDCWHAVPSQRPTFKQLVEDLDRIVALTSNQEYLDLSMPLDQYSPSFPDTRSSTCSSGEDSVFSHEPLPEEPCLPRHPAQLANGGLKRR
// reported phosphorylation enrichment for each item listed

Below, 5 sequences whose answers are already recorded.
QTWKTYVRQQQ [SFI1_Y164]
0.411
GSIQQYIFKQE [PRG4_Y1271_YF]
0.531
KGERGYPGTLG [COL4A1_Y348_P352L]
0.375
KFVKMCDNHQL [MYO9A_Y203_Y203C_YF]
0.429
SDVCMYRKNTF [SYNE2_Y570_I574T_YF]
0.497

Returns the measured phosphorylation enrichment for the input sequence. Input: ELTSVYGSRAR [SENP1_Y349_D350G]
0.41

Using the record for HNLDFYKQTTN [FGFR3_Y648_K650Q_YF] , report its phosphorylation enrichment.
0.581

Which phosphorylation enrichment value belongs to KLNNEYLELNF [MME_Y497_YF] ?
4.77

Report phosphorylation enrichment for THPFLYLTLEI [MLH1_Y293_S295T] please.
0.652

Given the sequence NLSVPYDSSLK [ABCC8_Y1353_R1352P] , what is its reported phosphorylation enrichment?
0.445

Need phosphorylation enrichment, item KSRQIYDAYIM [GRK3_Y109_R104K]
0.505
